Property: viability; scope: individual molecules
test: HUVEC growth inhibition – cell-based, human, primary screen (AID 575); settings: HUVEC proliferation, CellTiter-Glo luminescence, 72 h; at 10 µM; hits give low values;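 also: 100% = median of untreated cell wells with 0.1% DMSO on each plate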

Molecule	Unit symbol	viability
COc1ccccc1S(=O)(=O)Cc1ccc(C(=O)NCCN2CCCCCC2)o1	%	97.5
O=C(Nc1c(C(=O)NCc2ccco2)cnn1-c1ccccc1)c1ccc(F)cc1	%	91.9
COc1ccc(OC)c(C(C)NC=O)c1 (configuration not stated)	%	102
Cc1ccc(-n2c3c(cc(C(=O)NC4CCSC4=O)c2=O)C(=O)CC(C)(C)C3)cc1 (configuration not stated)	%	85.4
Cc1ccc(-c2noc(CN3C(C)CCCC3C)n2)cc1 (configuration not stated)	%	114
COC(=O)c1ccc(-c2nn(C)c(=O)c3ccccc23)cc1	%	83.8
COC(=O)CSc1nc2nc(C)cc(C)n2n1	%	88.8
CC(C)Sc1nc2c(c(=O)n1-c1ccc(F)cc1)SCC2	%	87.6
CCOC(=O)c1cc2c(=O)n3ccccc3nc2n(CCCOC)c1=NC(C)=O	%	109
c1nc(NCC2(N3CCOCC3)CCCCC2)c2ccsc2n1	%	97.7
C=CCNC(=O)CSc1nc2sc(C)c(C)c2c(=O)[nH]1	%	90.1
CCCCn1c(CNC(=O)CCC)nc2ccccc21	%	87.8

====

test: viability of PTEN-null HCT116 cells – cell-based, HCT116 clonal line, CellTiter-Glo, pilot screen (AID 824); details: HCT116 PTEN-deleted viability, 60 h, at 10 µM, hits give low values;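 also: 0% = 20 µM Hyamine control and 100% = vehicle cell control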
Inconclusive results are not listed.
Property: viability; scope: individual molecules
Endpoint name: viability (%)

Molecule	Unit symbol	Reported result
O=C(C1CCCN1S(=O)(=O)c1cccc2cccnc12)N1CCn2c1nc1ccccc12 (stereo unspecified)	%	101
COc1ccc(OC)c(NC(=O)Cn2cnc3c(cnn3-c3ccccc3)c2=O)c1	%	94.2
Clc1ccc(-c2nnc(SCc3nc(-c4ccccc4)no3)o2)cc1	%	91.7
CN(C)C(=O)N1CCN(C(=O)c2ccco2)CC1	%	99.5
C=CCOC(=O)c1sc(NC(=O)c2ccco2)nc1C	%	84.6
CCCCN(C)Cc1c(O)ccc2c(-c3ccccc3)cc(=O)oc12	%	93.6
COc1ccc(NC(=O)CN2C(=O)CC(C)(C)S(=O)(=O)c3ccccc32)cc1	%	96.7
CC1CCCN(c2ncnc3c2cnn3-c2ccccc2)C1 (stereo unspecified)	%	73.5
O=P(/C(=N/O)Sc1ccccc1)(N1CCOCC1)N1CCOCC1	%	97
CCC(C)Sc1nc2c(cnn2-c2ccc(C)cc2)c(=O)[nH]1 (stereo unspecified)	%	88.9
CCCC(=O)Nc1cc(C)c2c(=O)oc3ccccc3c2n1	%	86.1

====

assay: RAM pathway blockade in budding yeast – dse1pr::URA3 reporter, 5-FOA selection, pilot screen (AID 869);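 also: 0% = DMSO wells with no growth and 100% = 10 µM 1-NA-PP1 with full growth; RAM network block rescues cells from 5-FOA so hits raise OD615 growth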; details: S. cerevisiae dse1pr::URA3 5-FOA growth, OD615, 2 d; at 10 µM; hits give high values; strain carries analog-sensitive mutant Cbk1 kinase
Property: inhibition; scope: individual compounds

Compound	inhibition / %
O=C(c1ccc(CSCc2ccccc2F)o1)N1CCN(c2ccc(N3CCOCC3)nn2)CC1	1.54
COCCN1C(=O)c2oc3ccccc3c(=O)c2C1c1ccc(O)c(OC)c1 (stereo not given)	0.49
CC1(C)CC(=O)C=C(NCc2cccnc2)C1	-0.505
COc1ccc(NC(=O)C(c2ccc(C)cc2)N(C)C(=O)c2cnccn2)cc1 (stereo not given)	-0.145
COc1cccc(C2CC(c3ccc(C)cc3)Nc3nc(N)nn32)c1 (stereo not given)	0.515
CCSCCOC(=O)C1=C(C)NC(=O)NC1c1cccc(OC)c1OC (stereo not given)	0.96
Cc1ccnc(NC2c3ccccc3C(=O)N2Cc2ccccc2Cl)c1 (stereo not given)	2.44
CCCc1cc(=O)oc2c(C)c3occ(C)c3cc12	3.16
COC(=O)C(C#N)C(=C1C(=O)CC(C)(C)CC1=O)c1ccc(O)cc1 (stereo not given)	1.16
Nc1nc(NC(=O)c2ccco2)nn1-c1ccccc1	-0.025
O=C(Cn1ncc2c1-c1ccccc1OC2)Nc1ccc(Cl)cn1	4.09
CCn1cc(C(=O)NCCC2=CCCCC2)c(=O)c2cc(S(=O)(=O)N(C)C)ccc21	1.37
COc1ccc(Nc2oc(-c3ccccc3Cl)nc2C#N)cc1	1.94
Cc1nc2ccc(S(=O)(=O)NC(C(=O)Nc3nccs3)C(C)C)cc2s1 (stereo not given)	1.99
CCOC(=O)N1CCN(C(=O)c2cc3c(=O)n(C)c4ccccc4c3n2C)CC1	1.31
COC(=O)CCCCCc1ccc(C(C)=O)s1	0.02
N#CCCN1CCN(S(=O)(=O)c2ccc(S(=O)(=O)NC3CCCCC3)cc2)CC1	1.02
COc1ccc(C(=O)N2CCC(C(=O)Nc3cccc(C)c3)CC2)cc1OC	0.29
CCN(CC)C(=O)C1CCCN(c2ncnc3c2cnn3-c2ccc(Cl)cc2)C1 (stereo not given)	0.62
CCOc1ccc(Cn2nnc(C(=O)Nc3cc(C)cc(C)c3)c2N)cc1	3.23
CC(C)n1c(=O)[nH]c2ccccc21	0.575
Cc1noc(/C=C/N(C)C)c1S(=O)(=O)N1CCCC(C(=O)N2CCc3ccccc32)C1 (stereo not given)	1.35
CN(C(=O)c1ccccc1C(=O)c1ccccc1)C1CCS(=O)(=O)C1 (stereo not given)	-0.06
O=C(Nc1ccccc1)c1cnc2n(c1=O)CCS2	1.94
CCOC(=O)N1CCN(C(=O)CSc2nnc(Cn3c(=O)sc4ccccc43)n2C)CC1	1.69
CCCn1c(NCc2cc(C)ccc2O)nc2ccccc21	-0.08
CCOC(=O)N1CCC(NC(=O)C2CCN(S(=O)(=O)c3cccc4cccnc34)CC2)CC1	1.02
O=C(Nc1ccc2snnc2c1)N1CCN(c2ccccc2)CC1	1.3
CNC(=O)c1ccsc1NC(=O)CN1C(=O)CCC1=O	1.65
CC1CCc2nn(CC(=O)Nc3ccc(F)cc3F)cc2C1 (stereo not given)	2.21
Cc1ccc(OCc2nc(-c3ccccn3)no2)c(Br)c1	-0.35
Nc1c(C(=O)Nc2ccc(Cl)cc2)oc2ccccc12	2.38
O=C(CSc1ncnc2c1oc1ccccc12)Nc1cccc(C(F)(F)F)c1	3.52
O=C(O)CC(NC(=O)c1ccccc1NC(=O)c1ccccc1)C(=O)O (stereo not given)	0.785
CCC(C)(NC(=O)c1ccc(=O)[nH]c1)C(=O)NC1CCCC1 (stereo not given)	1.92
Cc1cc(C)n(-c2ccc(N3CCOCC3)nn2)n1	0.245
Cc1cc(N2CCCC2)n2nc(C)nc2n1	1.88
O=C(Nc1ccncc1)C1CCCN(S(=O)(=O)c2cccc3cccnc23)C1 (stereo not given)	1.59
CNC(=O)C1C2C=CC3(O2)C1C(=O)N(C1CC1)C3C(=O)NCc1ccc(OC)cc1 (stereo not given)	0.115
CCN1CCN(C(c2cccs2)C(C)NC(=O)c2cccc(OC)c2)CC1 (stereo not given)	-0.09
C/C=C/CSc1nc2c(c(=O)[nH]c(=O)n2C)n1Cc1ccc(C)cc1	1.98
COc1ccc(NC(=O)C2CCCN(S(=O)(=O)c3cccc4cccnc34)C2)cc1 (stereo not given)	2.36
CCOC(=O)c1cccc(NC(=O)CNC(=O)C2CCCCC2)c1	0.655
O=C(O)CCCC(=O)Nc1c(F)c(F)c(F)c(F)c1F	0.175
CCn1cc(C(=O)N2CCn3c(nc4ccccc43)C2)c(=O)c2ccc(C)nc21	2.08

====

assay: RAM pathway blockade in budding yeast – dse1pr::URA3 reporter, 5-FOA selection, pilot screen (AID 869);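 also: 0% = DMSO wells with no growth and 100% = 10 µM 1-NA-PP1 with full growth; RAM network block rescues cells from 5-FOA so hits raise OD615 growth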; details: S. cerevisiae dse1pr::URA3 5-FOA growth, OD615, 2 d; at 10 µM; strain carries analog-sensitive mutant Cbk1 kinase
Activity calls are given as the source filed them.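 How the source made its calls: active means inhibition over a set limit, the all-compound mean plus 3 SD, in both replicate runs; inconclusive means over that limit in just one replicate run; inactive means at or under that limit in both runs.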
Possible outcomes: class 1 (active), class 0 (inactive)

Compound	Class
CCOC(=O)COn1c(=O)c(=O)n(O)c2ccccc21	class 0
CCCn1nc(NC(=O)CC(C)C)c2cc3ccccc3nc21	class 0
COc1ccc(OC)c(C2C(C(=O)Nc3ccc(F)cc3)=C(C)Nc3nc(CCCO)nn32)c1 (stereo unspecified)	class 0
O=C(Cc1cccs1)N(Cc1ccco1)C1(C(=O)NC2CCCC2)CCCCC1	class 0
Cc1ccc(-c2cc(C(F)(F)F)n3nc(C(=O)N4CCCC4)cc3n2)cc1	class 0
Cn1nnnc1SCC(=O)N1CCN(c2ccccc2)CC1	class 0
CN(CP(=O)(O)C(O)c1ccccc1)S(C)(=O)=O (stereo unspecified)	class 0
Cc1ccc(C)c2[nH]c(=O)c(CCNC(=O)c3ccc(S(=O)(=O)N(C)C)cc3)cc12	class 0
Cc1cccc(-n2ncc3c(NC(C)C)ncnc32)c1	class 0
O=C(Nc1nnc(C2CC2)s1)c1cc(-c2ccccc2)nn1-c1ccccc1	class 0
COc1ccc(N2CCN(S(=O)(=O)c3ccc(OC)cc3)CC2)cc1	class 0
O=C(c1cccs1)N1CCc2ccccc21	class 0
CN(C)C(=O)Nc1cnc2ccccc2c1	class 0
COC(=O)CSc1nnc(-c2ccncc2)o1	class 0
Cc1cccc(Cn2c(SCCN3CCCCC3)nc3c2c(=O)[nH]c(=O)n3C)c1	class 0
Cc1ccc(CNC(=O)C2CCCN(S(=O)(=O)c3cnc[nH]3)C2)cc1 (stereo unspecified)	class 0
CCc1ccc(C2CC(c3ccc(C)cc3)n3nc(N)nc3N2)cc1 (stereo unspecified)	class 0
COc1ccc(CCNC(=O)CCS(=O)(=O)c2cccc3nsnc23)cc1OC	class 0
COc1ccc(CCNC(=O)c2cc3sc(Cl)cc3n2C)cc1OC	class 0
Cc1ccc(CSc2nc3c(c(=O)[nH]2)CCC3)cc1	class 0
O=C(c1ccc(NS(=O)(=O)c2cccs2)cc1)N1CCCCC1	class 0
N#C/C(C(=O)c1ccccc1)=C1/CCCN1	class 0
COc1ccc(C2N(c3ccc(OC)cc3)C(=O)C3CCCN32)cc1 (stereo unspecified)	class 0
CC(C)CCN(C)C1CCN(S(=O)(=O)c2ccc(F)cc2)CC1	class 0
O=C(Nc1ccc(CN2CCOCC2)cc1)c1cc2ccccn2n1	class 0
CS(=O)(=O)Nc1ccccc1C(=O)O	class 0
CCOc1ccccc1C(=O)Nc1cc(=O)n(C)c(=O)n1C	class 0
CCN1CCN(Cc2ccc(NC(=O)Nc3ccccc3)cc2)CC1	class 0
COc1cccc(C2C3=C(N=C4SCC(=O)N42)c2ccccc2CC3)c1OC (stereo unspecified)	class 0
c1csc(CCNc2ncnc3sc4c(c23)CCC4)c1	class 0
O=C(OCn1nnc2ccccc2c1=O)c1cc2ccccc2o1	class 0
Cn1c(C(=O)NCCCN2CCCCCC2)cc2c(=O)n(C)c3ccccc3c21	class 0
Cc1cccc(N2C(=O)CC(N3CCN(c4cccc(C(F)(F)F)c4)CC3)C2=O)c1 (stereo unspecified)	class 0
COc1ccc(-c2noc(COc3ccc(Cl)c(C)c3)n2)cc1	class 1
CCOC(=O)c1ccc(NC(=O)CC2SC(=NC)N(C)C2=O)cc1 (stereo unspecified)	class 0
CN1CCN(Cc2nc3c(c(=O)[nH]c(=O)n3C)n2CCc2ccccc2)CC1	class 0
COc1cccc(-c2nc3cc(C)ccc3o2)c1	class 0
CC1CCN(C(=O)Cn2cc3c(n2)CCCC3)CC1	class 0
Cc1cc(C)c2c(=O)n(CC(=O)NCCCN3CCN(c4ccccc4F)CC3)sc2n1	class 0
CCOc1ccc(CCNc2cc(C)nc3ncnn23)cc1OCC	class 0
Cc1nc2ccccc2c2oc(C(=O)NCC3COc4ccccc4O3)cc12 (stereo unspecified)	class 0
CCC(C)C(NC(=O)C1CCC(C)CC1)C(=O)NCc1cccnc1 (stereo unspecified)	class 0
O=C(CCNS(=O)(=O)c1cccs1)Nc1ccccc1F	class 0
CCc1ccccc1S(=O)(=O)Cc1ccc(C(=O)N2CCN(c3ccccn3)CC2)o1	class 0
CC1Cc2ccccc2N1C(=O)c1cnc2n(c1=O)CCS2 (stereo unspecified)	class 0
O=C(CS(=O)(=O)c1cn(Cc2ccc(F)cc2)c2ccccc12)N1CCCCC1	class 0
